B1: TRIM39 (parent)
chain: CKACITRWWEDLERDFPCPVCRKT

- Variants of: B1
- Assay Text: protein stability index of a GFP-peptide fusion (GPS, HEK-293T) (PSI 1-6); higher = more stable;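 note: lentivirally expressed fusions sorted by FACS into six bins by GFP to DsRed ratio, PSI derived from sequencing read proportions per bin multiplied by bin number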
- Condition Label: c terminus: a fixed tail appended
Param threshold (4) applies to protein stability index; output Criterion met when value >= threshold, Criterion not met when value < threshold.

Illustrative cases are given below, each with its answer.
D11Y = Criterion not met
C4T = Criterion not met
W9S = Criterion met
W8E = Criterion met
P19L = Criterion not met

Can F16T be said to have protein stability index at or above 4?
Criterion met

Thanks! And D11I ?
Criterion not met

What about P19K ?
Criterion not met

Check C21I too.
Criterion not met

// next record R7C
Criterion not met

Would you kindly repeat that for I5C ?
Criterion met
